Assay: Critical micelle concentration by fluorescent staining with diphenylhexatriene (DPH)
Assay type: physicochemical
Conditions: aqueous solution
REPORTED_METRIC: CMC (wt %)

MOLECULE	RESULT
CCCCCCCCCCCC(CCCCCCCCCCC)COCC(CO[C@@H]1OC(CO)[C@@H](O[C@H]2OC(CO)[C@@H](O)C(O)C2O)C(O)C1O)(CO[C@@H]1OC(CO)[C@@H](O[C@H]2OC(CO)[C@@H](O)C(O)C2O)C(O)C1O)CSCC(COCC(CCCCCCCCCCC)CCCCCCCCCCC)(CO[C@@H]1OC(CO)[C@@H](O[C@H]2OC(CO)[C@@H](O)C(O)C2O)C(O)C1O)CO[C@@H]1OC(CO)[C@@H](O[C@H]2OC(CO)[C@@H](O)C(O)C2O)C(O)C1O (stereo partly drawn) [TMM-C24]	~0.00034 wt %
CC1CCC2(OC1)OC1CC3C4CC=C5CC(OCC(CO[C@@H]6OC(CO)[C@@H](O[C@H]7OC(CO)[C@@H](O)C(O)C7O)C(O)C6O)(CO[C@@H]6OC(CO)[C@@H](O[C@H]7OC(CO)[C@@H](O)C(O)C7O)C(O)C6O)CSCC(COC6CCC7(C)C(=CCC8C7CCC7(C)C8CC8OC9(CCC(C)CO9)C(C)C87)C6)(CO[C@@H]6OC(CO)[C@@H](O[C@H]7OC(CO)[C@@H](O)C(O)C7O)C(O)C6O)CO[C@@H]6OC(CO)[C@@H](O[C@H]7OC(CO)[C@@H](O)C(O)C7O)C(O)C6O)CCC5(C)C4CCC3(C)C1C2C (stereo partly drawn) [TMM-D27]	~0.0024 wt %
CCCCCCCCCCC(CCCCCCCCCC)COCC(CO[C@@H]1OC(CO)[C@@H](O[C@H]2OC(CO)[C@@H](O)C(O)C2O)C(O)C1O)(CO[C@@H]1OC(CO)[C@@H](O[C@H]2OC(CO)[C@@H](O)C(O)C2O)C(O)C1O)CSCC(COCC(CCCCCCCCCC)CCCCCCCCCC)(CO[C@@H]1OC(CO)[C@@H](O[C@H]2OC(CO)[C@@H](O)C(O)C2O)C(O)C1O)CO[C@@H]1OC(CO)[C@@H](O[C@H]2OC(CO)[C@@H](O)C(O)C2O)C(O)C1O (stereo partly drawn) [TMM-C22]	~0.00044 wt %
